Tested on: mouse primary DRG neurons
Experiment: Neurite outgrowth assay of DRG neurons (image-based HCS) against paclitaxel-induced neurotoxicity
Type: cell-based
Settings: Mus musculus, DRG neuron, supplementary CSV; test compound 1000 nM; read-out: A-B (A: neurite outgrowth (% of control) of test compound (1000 nM) + paclitaxel (50 nM); B: of paclitaxel (50 nM))
quantityKind: activation at 1 µM (%)
Give bare numbers, in %.

Example entries and their recorded answers appear below.
# compound, unitAnnotation, activation at 1 µM
measured = [
    ("COCCCn1cc(CNc2nc(NC3CCN(CCP(=O)(O)O)CC3)cc(N3CCOCC3)n2)nn1 [CN028]", "%", -2),
    ("COC(=O)CCOCCCn1cc(CNc2nc(NC3CCN(CCC(=O)OC)CC3)cc(N3CCOCC3)n2)nn1 [CN011]", "%", 4),
]

Batch lookup, activation at 1 µM per entry.
1. O=P(O)(O)CCN1CCC(Nc2cc(N3CCCCC3)nc(NCc3cn(CCCO)nn3)n2)CC1 [CN022]
2. COC(=O)CCN1CCC(Nc2cc(N3CCOCC3)nc(NCc3cn(CCCO)nn3)n2)CC1 [CN009]
3. O=P(O)(O)CCN1CCC(Nc2cc(N3CCSCC3)nc(NCc3cn(CCCO)nn3)n2)CC1 [CN023]
4. CC(O)Cn1cc(CNc2nc(NC3CCN(CCP(=O)(O)O)CC3)cc(N3CCOCC3)n2)nn1 (centres unmarked) [CN025]
5. CC(O)CCn1cc(CNc2nc(NC3CCN(CCP(=O)(O)O)CC3)cc(N3CCOCC3)n2)nn1 (centres unmarked) [CN026]

**A:**
6
15
4
4
11

**Q:** So what's the measured activation at 1 µM for this one? O=P(O)(O)CCN1CCC(Nc2cc(N3CCOCC3)nc(NCc3cn(CCCCO)nn3)n2)CC1 [CN021]
**A:** 11

====

System: mouse primary DRG neurons
Test: Neurite outgrowth assay of DRG neurons (image-based HCS) against paclitaxel-induced neurotoxicity
Assay type: cell-based
Details: Mus musculus, DRG neuron, supplementary CSV; test compound 1000 nM; read-out: A-B (A: neurite outgrowth (% of control) of test compound (1000 nM) + paclitaxel (50 nM); B: of paclitaxel (50 nM))
Kindly state activation at 1 µM for each of the entries shown.
Give bare numbers, in %.

Example entries begin here.
# molecule, testedOn, unitAnnotation, activation at 1 µM
records = [
    ("O=P(O)(O)CCN1CCC(Nc2cc(N3CCOCC3)nc(NCc3cn(CCO)nn3)n2)CC1 [CN020]", "mouse primary DRG neurons", "%", 8),
    ("CCOP(=O)(CCN1CCC(Nc2cc(N3CCOCC3)nc(NCc3cn(CCCO)nn3)n2)CC1)OCC [CN012]", "mouse primary DRG neurons", "%", 9),
]

// batch mode: one activation at 1 µM value per listed entry
1. CCOP(=O)(CCN1CCC(Nc2cc(N3CCOCC3)nc(NCc3cn(CCC(C)(C)O)nn3)n2)CC1)OCC [CN013]
2. OCCCn1cc(CNc2nc(NC3CCN(Cc4ccccc4)CC3)cc(N3CCOCC3)n2)nn1 [CN004]
3. COCCCn1cc(CNc2nc(NC3CCN(CCC(=O)OC)CC3)cc(N3CCOCC3)n2)nn1 [CN010]
4. CCOP(=O)(CCN1CCC(Nc2cc(N3CCOCC3)nc(NCc3ccc(CCO)cc3)n2)CC1)OCC [CN018]
5. COC(=O)CCOCCCn1cc(CNc2nc(NC3CCN(Cc4ccccc4)CC3)cc(N3CCOCC3)n2)nn1 [CN002]
6. NCCOCCn1cc(CNc2nc(NC3CCN(C(=O)CCNC(=O)C4(O)CC(O)C(O)C(O)C4)CC3)cc(N3CCOCC3)n2)nn1 (stereo not drawn) [CN008]
7. COC(=O)CCOCCCn1cc(CNc2nc(NC3CCN(Cc4ccc5ccccc5c4)CC3)cc(N3CCOCC3)n2)nn1 [CN005]

**A:**
6
1
5
3
-4
4
-3

Lab note: each molecule below needs its activation at 1 µM filled in.
1. O=C(O)Cn1cc(CNc2nc(NC3CCN(Cc4ccccc4)CC3)cc(N3CCOCC3)n2)nn1 [CN001]
2. CSCCCn1cc(CNc2nc(NC3CCN(Cc4ccccc4)CC3)cc(N3CCOCC3)n2)nn1 [CN003]
3. CCOP(=O)(CCN1CCC(Nc2cc(N3CCOCC3)nc(NCc3cn(CCCOCCC(=O)OC)nn3)n2)CC1)OCC [CN015]

**A:**
1: -6; 2: 1; 3: 3
